Hello, the source for this data is patent US20100035755A1, in case you need it.

We begin with a simple list: items and their reported phytotoxicity (visual assessment 0-10).
# System: Perennial rye grass
# EXPERIMENTAL_PROTOCOL: Turf grass selectivity, greenhouse pot test
# Format: in vivo
# PARTICULARS: 50 g ai/ha, 4 weeks

Field: example entries. Status: answers known.
1. COc1nc(C)nc(NC(=O)NS(=O)(=O)c2cscc2C2(CF)OCCO2)n1 [Example 2]	10
2. COc1cc(OC)nc(NC(=O)NS(=O)(=O)c2ncccc2C(F)(F)F)n1 [Control chemical No. 2, Flazasulfuron, reference compound]	10
3. Cc1cc(C)nc(NC(=O)NS(=O)(=O)c2ccccc2C(O)C(C)F)n1 (stereo not shown) [Example 1]	0

Continue with the next molecule.
Req: Answer with reported phytotoxicity (visual assessment 0-10) of CCOC(=O)c1cnn(C)c1S(=O)(=O)NC(=O)Nc1nc(OC)cc(OC)n1 [Control chemical No. 1, Pyrazosulfuron ethyl, reference compound]
Resp: 0
